For each of the molecules below, state its inhibition.
- measured-target: Vascular endothelial growth factor receptor 3 (Homo sapiens) (UniProt P35916)
- Sequence (P35916 whole entry): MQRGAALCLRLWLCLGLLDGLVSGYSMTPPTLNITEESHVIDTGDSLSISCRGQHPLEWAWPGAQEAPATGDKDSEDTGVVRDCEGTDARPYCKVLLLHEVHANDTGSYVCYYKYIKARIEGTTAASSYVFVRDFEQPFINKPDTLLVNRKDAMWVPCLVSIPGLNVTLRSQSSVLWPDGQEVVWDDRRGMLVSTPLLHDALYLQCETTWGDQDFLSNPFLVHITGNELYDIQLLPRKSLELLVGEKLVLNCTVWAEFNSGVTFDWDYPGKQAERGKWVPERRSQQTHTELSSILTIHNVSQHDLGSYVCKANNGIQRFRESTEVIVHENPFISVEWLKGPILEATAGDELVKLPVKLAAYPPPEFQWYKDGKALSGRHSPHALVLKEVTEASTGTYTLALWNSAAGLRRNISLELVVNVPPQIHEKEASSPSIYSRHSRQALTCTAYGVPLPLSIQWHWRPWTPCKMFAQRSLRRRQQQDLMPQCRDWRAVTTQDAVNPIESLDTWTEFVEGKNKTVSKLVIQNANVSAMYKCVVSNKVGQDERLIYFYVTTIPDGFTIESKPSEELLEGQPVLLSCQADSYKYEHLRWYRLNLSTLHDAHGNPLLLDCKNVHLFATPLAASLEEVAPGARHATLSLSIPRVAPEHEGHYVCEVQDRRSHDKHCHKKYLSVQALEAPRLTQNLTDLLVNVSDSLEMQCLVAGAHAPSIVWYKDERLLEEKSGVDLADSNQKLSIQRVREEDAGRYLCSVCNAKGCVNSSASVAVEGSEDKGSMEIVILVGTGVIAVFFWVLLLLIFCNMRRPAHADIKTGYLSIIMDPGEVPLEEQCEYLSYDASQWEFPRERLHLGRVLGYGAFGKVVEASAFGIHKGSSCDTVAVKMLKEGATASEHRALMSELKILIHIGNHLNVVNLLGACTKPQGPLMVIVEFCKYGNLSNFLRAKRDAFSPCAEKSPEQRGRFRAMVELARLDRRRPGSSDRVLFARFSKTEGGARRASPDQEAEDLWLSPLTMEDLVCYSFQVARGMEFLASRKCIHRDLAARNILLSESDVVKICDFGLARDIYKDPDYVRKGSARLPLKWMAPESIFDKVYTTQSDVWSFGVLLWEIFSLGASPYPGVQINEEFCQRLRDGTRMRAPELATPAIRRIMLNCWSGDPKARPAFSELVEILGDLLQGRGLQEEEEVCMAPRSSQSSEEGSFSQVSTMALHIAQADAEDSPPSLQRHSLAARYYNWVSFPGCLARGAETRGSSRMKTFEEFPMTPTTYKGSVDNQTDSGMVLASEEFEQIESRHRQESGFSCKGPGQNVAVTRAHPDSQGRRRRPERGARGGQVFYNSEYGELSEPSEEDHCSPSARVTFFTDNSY
- experimental-context: at 0.1 µM
- Description: GSK_PKIS: FLT4 mean inhibition at 0.1 uM [Nanosyn]
Give the quantity in %, number only.

Consider COc1cc(C=NNc2ncnc3c2cnn3-c2ccccc2)ccc1O . Its measured inhibition is 5.09

Consider CC1=C(C(=O)Nc2ccc3[nH]ncc3c2)C(c2ccc(Cl)c(Cl)c2)CC(=O)N1 (stereo not given) . Its measured inhibition is -2.61

Consider Cc1ccc(C(=O)NC2CCCCC2)cc1-c1ccc(C(=O)NCC2CC2)cc1 . Its measured inhibition is 3.84

Consider NCc1ccc(-c2nc(-c3ccc(Cl)c(O)c3)c(-c3ccncc3)[nH]2)cc1 . Its measured inhibition is 19.7

Consider CS(=O)(=O)CCNCc1nc(-c2ccc3ncnc(Nc4ccc(F)c(Cl)c4)c3c2)cs1 . Its measured inhibition is 3.61

----------
- measured-target: Dual specificity tyrosine-phosphorylation-regulated kinase 1B (Homo sapiens);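 also: values are mean percent inhibition of DYRK1B, from the GSK_PKIS set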
- experimental-context: at 1 µM
property-name: inhibition (%)
Give the quantity in %, number only.

Consider NC(=O)c1cccc(Nc2nccc(Nc3cccc4[nH]ncc34)n2)c1 . Its measured inhibition is 28.3

Consider Nc1ncnc2occ(-c3ccc(NC(=O)Nc4cc(C(F)(F)F)cc(C(F)(F)F)c4)cc3)c12 . Its measured inhibition is 1.76

Consider CS(=O)(=O)CCNCc1nc(-c2ccc3ncnc(Nc4ccc(F)c(Cl)c4)c3c2)cs1 . Its measured inhibition is 1.63

----------
For each of the compounds below, state its inhibition.
- measured-target: Mitogen-activated protein kinase 11 (Homo sapiens);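 also: values are mean percent inhibition of p38beta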
- experimental-context: at 1 µM
Give the quantity in %, number only.

Consider CCN1CCC(CC(=O)Nc2n[nH]c3nc(-c4cccs4)c(Br)cc23)CC1 . Its measured inhibition is 3.07

Consider COc1cc2ncn(-c3cc(OCc4ccccc4C(F)(F)F)c(C(N)=O)s3)c2cc1OC . Its measured inhibition is 7.82

Consider CC1=C(C(=O)Nc2ccc3[nH]ncc3c2)C(c2ccc3ccccc3c2)CC(=O)N1 (stereo unspecified) . Its measured inhibition is 2.44

Consider COc1ccccc1Nc1ncc(-c2ccccc2)o1 . Its measured inhibition is 7.08

Consider COc1cc(C)c(NC(=O)CN(C)C)cc1Nc1nc(Nc2cccc(F)c2C(N)=O)c2cc[nH]c2n1 . Its measured inhibition is 3.23

Consider CCn1c(-c2nonc2N)nc2c(N3CCCC3)nccc21 . Its measured inhibition is 2.54

----------
For each of the compounds below, state its inhibition.
- measured-target: SRSF protein kinase 3 (Homo sapiens) (UniProt Q9UPE1);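 also: values are mean inhibition of MSSK1 (alias of SRPK3)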
- Sequence (Q9UPE1 whole entry): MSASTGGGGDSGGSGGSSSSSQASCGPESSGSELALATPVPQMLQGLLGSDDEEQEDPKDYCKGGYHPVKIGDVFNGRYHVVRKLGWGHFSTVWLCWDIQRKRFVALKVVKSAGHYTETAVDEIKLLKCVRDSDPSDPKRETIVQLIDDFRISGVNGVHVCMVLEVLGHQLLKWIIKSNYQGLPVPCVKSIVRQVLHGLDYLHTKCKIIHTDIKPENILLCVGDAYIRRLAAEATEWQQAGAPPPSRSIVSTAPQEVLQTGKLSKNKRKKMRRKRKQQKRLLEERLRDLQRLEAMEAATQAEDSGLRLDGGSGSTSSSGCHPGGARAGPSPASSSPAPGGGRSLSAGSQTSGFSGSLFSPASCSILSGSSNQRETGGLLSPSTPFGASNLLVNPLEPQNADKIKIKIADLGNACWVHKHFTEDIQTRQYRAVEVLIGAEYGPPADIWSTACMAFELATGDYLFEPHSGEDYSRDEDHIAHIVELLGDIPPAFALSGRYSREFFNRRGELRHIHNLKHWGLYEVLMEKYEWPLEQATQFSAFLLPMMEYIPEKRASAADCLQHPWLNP
- experimental-context: at 1 µM
Give the quantity in %, number only.

Measured on SRSF protein kinase 3 (Homo sapiens) (UniProt Q9UPE1), Cn1cc(C=C2C(=O)Nc3cccnc32)c2ccccc21 has a documented inhibition of -0.47

Measured on SRSF protein kinase 3 (Homo sapiens) (UniProt Q9UPE1), O=C1NC(=O)C(c2ccc(Cl)cc2)=C1Nc1ccc(Cl)c(C(=O)O)c1 has a documented inhibition of 1.51

Measured on SRSF protein kinase 3 (Homo sapiens) (UniProt Q9UPE1), CS(=O)(=O)CCNCc1nc(-c2ccc3ncnc(Nc4ccc(F)c(Cl)c4)c3c2)cs1 has a documented inhibition of 1.52

Measured on SRSF protein kinase 3 (Homo sapiens) (UniProt Q9UPE1), NS(=O)(=O)c1cccc(-c2ccc3c(NC(=O)C4CC4)n[nH]c3c2)c1 has a documented inhibition of -6.73

Measured on SRSF protein kinase 3 (Homo sapiens) (UniProt Q9UPE1), CS(=O)(=O)CCNCc1ccc(-c2ccc3ncnc(Nc4ccc(OCc5cccc(F)c5)c(C(F)(F)F)c4)c3c2)o1 has a documented inhibition of -0.64

----------
- measured-target: Tyrosine-protein kinase Lck (Homo sapiens) (UniProt P06239);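 also: reported values are mean percent inhibition of Lck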
- Sequence (P06239 2-509 limits assumed): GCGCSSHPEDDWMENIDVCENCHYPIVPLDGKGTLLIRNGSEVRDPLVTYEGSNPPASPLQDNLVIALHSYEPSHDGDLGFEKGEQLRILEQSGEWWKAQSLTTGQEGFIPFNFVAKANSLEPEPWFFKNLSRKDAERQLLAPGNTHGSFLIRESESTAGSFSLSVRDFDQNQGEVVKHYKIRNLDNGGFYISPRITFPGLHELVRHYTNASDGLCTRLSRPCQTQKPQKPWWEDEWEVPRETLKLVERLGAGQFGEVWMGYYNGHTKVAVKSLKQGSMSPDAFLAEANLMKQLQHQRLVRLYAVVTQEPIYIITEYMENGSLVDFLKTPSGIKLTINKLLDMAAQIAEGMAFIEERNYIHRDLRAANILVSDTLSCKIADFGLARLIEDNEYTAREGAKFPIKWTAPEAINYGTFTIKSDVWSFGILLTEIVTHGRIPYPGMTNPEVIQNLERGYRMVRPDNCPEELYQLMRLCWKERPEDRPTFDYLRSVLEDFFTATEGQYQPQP
- experimental-context: at 0.1 µM
For each of the compounds below, state its inhibition.
Give the quantity in %, number only.

Consider Nc1nc(-c2ccc3c(c2)C(=Cc2cc(Br)c(O)c(Br)c2)C(=O)N3)cs1 . Its measured inhibition is -1.54

Consider CNC(=O)c1cncc(/C=C/c2c(Cl)cccc2Cl)c1 . Its measured inhibition is 1.21

Consider CCCN1CCC=C(c2ccc(Nc3nc(Nc4ccccc4C(N)=O)c4cc[nH]c4n3)c(C)c2)C1 . Its measured inhibition is 4.63

Consider COc1ccc(-c2nn3ncccc3c2-c2ccnc(Nc3ccc(Cl)c(C(F)(F)F)c3)n2)cc1 . Its measured inhibition is -0.04

Consider COc1cccc(-n2ncc3c(N/N=C/c4cccc(F)c4)ncnc32)c1 . Its measured inhibition is 7.82

Consider CS(=O)(=O)CCN(CC#N)Cc1ccc(-c2ccc3ncnc(Nc4ccc(OCc5cccc(F)c5)c(Cl)c4)c3c2)o1 . Its measured inhibition is -1.83

Consider COc1cc(C=NNc2ncnc3c2cnn3-c2ccccc2)ccc1O . Its measured inhibition is 19.4

Consider COc1cc2c(cc1Nc1nc(N3CCc4ccccc43)c3cc[nH]c3n1)N(C(=O)CN(C)C)CC2 . Its measured inhibition is 1.15

Consider Cc1cc(O)cc(C)c1/C=C/c1cncc(-c2nn[nH]n2)c1 . Its measured inhibition is 1.97

Consider COc1ccc(-c2coc3ncnc(N)c23)cc1 . Its measured inhibition is 1.13

Consider CN1CCC(C(=O)Nc2n[nH]c3nnc(-c4ccccc4)cc23)CC1 . Its measured inhibition is 1.6

Consider O=C1NC(=O)C(c2cccc(Cl)c2)=C1Nc1ccc(O)c(Cl)c1 . Its measured inhibition is 1.6

----------
- measured-target: Ribosomal protein S6 kinase alpha-1 (Homo sapiens);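 also: mean inhibition of RSK1, reported in the GSK PKIS screen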
- experimental-context: at 1 µM
For each of the molecules below, state its inhibition.
Give the quantity in %, number only.

Measured on Ribosomal protein S6 kinase alpha-1 (Homo sapiens), Fc1cccc(COc2ccc(Nc3ncnc4sc(-c5cccs5)cc34)cc2Cl)c1 has a documented inhibition of -0.48

Measured on Ribosomal protein S6 kinase alpha-1 (Homo sapiens), Cc1nn(C)c2cc(N(C)c3ccnc(Nc4cccc(S(N)(=O)=O)c4)n3)ccc12 has a documented inhibition of 3.73

Measured on Ribosomal protein S6 kinase alpha-1 (Homo sapiens), COc1ccc(-c2nn3ncccc3c2-c2ccnc(Nc3ccc(Cl)c(C(F)(F)F)c3)n2)cc1 has a documented inhibition of 4.11

Measured on Ribosomal protein S6 kinase alpha-1 (Homo sapiens), CCN1CCC(CC(=O)Nc2n[nH]c3nc(-c4cccs4)c(Br)cc23)CC1 has a documented inhibition of -0.49

Measured on Ribosomal protein S6 kinase alpha-1 (Homo sapiens), O=C(Nc1n[nH]c2nc(-c3ccco3)c(Br)cc12)C1CC1 has a documented inhibition of -0.1

Measured on Ribosomal protein S6 kinase alpha-1 (Homo sapiens), CC1=C(C(=O)Nc2ccc3[nH]ncc3c2)C(c2ccc3ccccc3c2)CC(=O)N1 (stereo not given) has a documented inhibition of 26.4

Measured on Ribosomal protein S6 kinase alpha-1 (Homo sapiens), CN1CCC(C(=O)Nc2n[nH]c3nnc(-c4ccccc4)cc23)CC1 has a documented inhibition of 3.41

Measured on Ribosomal protein S6 kinase alpha-1 (Homo sapiens), COc1ccc2cc(-c3c(-c4ccncc4)nc(-c4ccc([S+](C)[O-])cc4)n3C)ccc2c1 (stereo not given) has a documented inhibition of 0.09

Measured on Ribosomal protein S6 kinase alpha-1 (Homo sapiens), COC(=O)Nc1nc2cc(Oc3ccc(NC(=O)Nc4cccc(C(=O)O)c4)cc3)ccc2[nH]1 has a documented inhibition of 2.55

Measured on Ribosomal protein S6 kinase alpha-1 (Homo sapiens), CS(=O)(=O)Nc1ccc(N/C=C2\C(=O)Nc3ccccc32)cc1 has a documented inhibition of 9.64

----------
For each of the compounds below, state its inhibition.
- measured-target: Calcium/calmodulin-dependent protein kinase type II subunit delta (Homo sapiens) (UniProt Q13557);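 also: mean percent inhibition of CAMK2D, from screening of the GSK Published Kinase Inhibitor Set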
- Sequence (Q13557 whole entry): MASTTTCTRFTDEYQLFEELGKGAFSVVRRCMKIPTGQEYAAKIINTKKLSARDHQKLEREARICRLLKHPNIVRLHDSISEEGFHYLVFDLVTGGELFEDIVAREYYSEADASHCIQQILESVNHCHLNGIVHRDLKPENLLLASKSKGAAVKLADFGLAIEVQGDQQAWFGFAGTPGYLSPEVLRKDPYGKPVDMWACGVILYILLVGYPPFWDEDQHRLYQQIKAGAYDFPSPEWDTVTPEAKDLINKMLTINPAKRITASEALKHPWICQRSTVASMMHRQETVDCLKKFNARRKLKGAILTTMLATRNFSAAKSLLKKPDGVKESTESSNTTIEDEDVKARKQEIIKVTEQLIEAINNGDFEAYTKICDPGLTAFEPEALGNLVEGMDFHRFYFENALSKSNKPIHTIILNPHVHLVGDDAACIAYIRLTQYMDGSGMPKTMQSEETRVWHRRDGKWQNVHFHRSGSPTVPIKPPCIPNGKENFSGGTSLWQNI
- experimental-context: at 1 µM
Give the quantity in %, number only.

Consider Nc1ncnc2occ(-c3ccc(NC(=O)Nc4cc(C(F)(F)F)cc(C(F)(F)F)c4)cc3)c12 . Its measured inhibition is 1.63

Consider O=C1NC(=O)C(c2cccc(Cl)c2)=C1Nc1ccc(O)c(Cl)c1 . Its measured inhibition is 12

Consider CNC(=O)c1cncc(/C=C/c2c(Cl)cccc2Cl)c1 . Its measured inhibition is 8.55

Consider COc1cc2c(cc1Nc1nc(N3CCc4ccccc43)c3cc[nH]c3n1)N(C(=O)CN(C)C)CC2 . Its measured inhibition is 2.99

Consider COc1cccc(-n2ncc3c(N/N=C/c4cccc(F)c4)ncnc32)c1 . Its measured inhibition is 16.1

Consider CS(=O)(=O)CCN(CC#N)Cc1ccc(-c2ccc3ncnc(Nc4ccc(OCc5cccc(F)c5)c(Cl)c4)c3c2)o1 . Its measured inhibition is 2.48

Consider CN(C)c1cc2c(Nc3ccc4nc(Cc5ccccc5)[nH]c4c3)ncnc2cn1 . Its measured inhibition is 4.05

Consider CCn1c(-c2nonc2N)nc2c(C#CC(C)(C)O)nc(CN3CCCC3)cc21 . Its measured inhibition is 1.82

Consider CS(=O)(=O)CCNCc1nc(-c2ccc3ncnc(Nc4ccc(F)c(Cl)c4)c3c2)cs1 . Its measured inhibition is 3.83

Consider COc1cc(C)c(NC(=O)CN(C)C)cc1Nc1nc(Nc2cccc(F)c2C(N)=O)c2cc[nH]c2n1 . Its measured inhibition is 14.2

Consider Cn1cc(C=C2C(=O)Nc3cccnc32)c2ccccc21 . Its measured inhibition is 6.23

Consider Fc1cccc(COc2ccc(Nc3ncnc4cc(-c5ccc[nH]5)sc34)cc2Cl)c1 . Its measured inhibition is 2.72

Consider O=C1Nc2ccc(C(=O)c3ccco3)cc2C1=Cc1cc(Cl)c(O)c(Cl)c1 . Its measured inhibition is 11.4

Consider c1cnn2ncc(-c3ccnc(Nc4ccc5c(c4)OCCO5)n3)c2c1 . Its measured inhibition is 35.7

Consider Nc1ncnc2occ(-c3ccc(NC(=O)Nc4cccc(C(F)(F)F)c4)cc3)c12 . Its measured inhibition is 2.75

Consider O=C1NC(=O)C(c2ccc(Cl)cc2)=C1Nc1ccc(Cl)c(C(=O)O)c1 . Its measured inhibition is 1.44

Consider COc1cc2ncn(-c3cc(OCc4ccccc4Cl)c(C(N)=O)s3)c2cc1OC . Its measured inhibition is 2.88

Consider O=C1NC(=O)C(N2CCc3ccccc32)=C1c1ccc(Cl)cc1 . Its measured inhibition is 5.17

Consider CC(=O)Nc1cccc(C#Cc2cncnc2Nc2ccc(OCc3cccc(F)c3)c(Cl)c2)n1 . Its measured inhibition is -2.74

Consider CS(=O)(=O)CCNCc1ccc(-c2ccc3ncnc(Nc4ccc(OCc5cccc(F)c5)c(C(F)(F)F)c4)c3c2)o1 . Its measured inhibition is 2.68

Consider CCn1c(-c2nonc2N)nc2ccncc21 . Its measured inhibition is 4.41

Consider Cc1cc(O)cc(C)c1/C=C/c1cncc(-c2nn[nH]n2)c1 . Its measured inhibition is 4.7

Consider CC1=C(C(=O)Nc2ccc3[nH]ncc3c2)C(c2ccc3ccccc3c2)CC(=O)N1 (centres undefined) . Its measured inhibition is 3.19

Consider COC(=O)Nc1nc2cc(Oc3cccc(NC(=O)Nc4cc(C(F)(F)F)ccc4F)c3)ccc2[nH]1 . Its measured inhibition is 0.94

Consider CCCN1CCC(Oc2cc(Nc3nc(Nc4cccc(F)c4C(N)=O)c4cc[nH]c4n3)c(OC)cc2Cl)CC1 . Its measured inhibition is 16.5

Consider COc1ccc(COc2ccc(Cc3cnc(N)nc3N)cc2OC)cc1 . Its measured inhibition is 2.5

Consider Nc1nc(-c2ccc3c(c2)C(=Cc2cc(Br)c(O)c(Br)c2)C(=O)N3)cs1 . Its measured inhibition is -1.31

Consider COc1cc2ncn(-c3cc(O[C@H](C)c4ccccc4Cl)c(C(N)=O)s3)c2cc1OC . Its measured inhibition is 19.1

Consider Fc1cccc(COc2ccc(Nc3ncnc4sc(-c5cccs5)cc34)cc2Cl)c1 . Its measured inhibition is 1.53

Consider CCn1c(-c2nonc2N)nc2c(C#CC(C)(C)O)nc(OC[C@@H](N)c3ccccc3)cc21 . Its measured inhibition is 1.5

Consider Cc1ccc(NC(=O)c2ccnc(N3CCCC3)c2)cc1-c1ccc(C(=O)NCC2CC2)cc1 . Its measured inhibition is 7.16

Consider NS(=O)(=O)c1cccc(-c2ccc3c(NC(=O)C4CC4)n[nH]c3c2)c1 . Its measured inhibition is -1.61

Consider CCn1c(-c2nonc2N)nc2cnc(Oc3cccc(NC(=O)c4ccc(OCCN5CCOCC5)cc4)c3)cc21 . Its measured inhibition is 4

Consider O=C1NC(=O)C(c2ccccc2Cl)=C1Nc1cccc(O)c1 . Its measured inhibition is 11.7
